Molecular target: MMP-2 (Homo sapiens, UniProt P08253)
Construct: made in house; provided by Dr. Gregory Goldberg, Washington University
Sequence (P08253 110-660): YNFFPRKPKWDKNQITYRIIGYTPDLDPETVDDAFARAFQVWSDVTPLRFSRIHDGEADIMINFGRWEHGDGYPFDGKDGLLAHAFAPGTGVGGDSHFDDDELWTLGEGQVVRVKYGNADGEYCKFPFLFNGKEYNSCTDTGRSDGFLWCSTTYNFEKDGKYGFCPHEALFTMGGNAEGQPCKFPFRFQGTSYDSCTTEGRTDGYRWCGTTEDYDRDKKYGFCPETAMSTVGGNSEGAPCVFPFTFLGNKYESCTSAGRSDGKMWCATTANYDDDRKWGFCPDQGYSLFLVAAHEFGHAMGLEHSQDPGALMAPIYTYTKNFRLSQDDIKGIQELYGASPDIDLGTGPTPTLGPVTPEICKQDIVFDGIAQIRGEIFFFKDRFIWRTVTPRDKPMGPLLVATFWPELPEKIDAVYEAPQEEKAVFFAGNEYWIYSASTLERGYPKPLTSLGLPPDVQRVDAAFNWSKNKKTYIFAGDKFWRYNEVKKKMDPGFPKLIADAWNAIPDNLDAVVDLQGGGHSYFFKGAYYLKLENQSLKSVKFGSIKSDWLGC
Assay: biochemical
Conditions: recombinant human MMP-2, MCA peptide substrate 4 μM, pH 7.5, room temperature; read-out: MMP-2 IC50
Record form. Attribute: IC50. Fill in for each entry.
Give bare numbers, in nM.

molecule	study.system	experimental.readout	reading
O=C(Nc1ccc(F)cc1)C1CCN(c2ccc(S(=O)(=O)C3(C(=O)NO)CCOCC3)cc2)CC1	MMP-2 (Homo sapiens, UniProt P08253)	IC50	500

Would you be so kind as to report IC50 for each listed record?
1. O=C(Nc1cccnc1)OC1CCN(c2ccc(S(=O)(=O)C3(C(=O)NO)CCOCC3)cc2)CC1
2. COc1ccc(COC2CCC(Oc3ccc(S(=O)(=O)C4(C(=O)NO)CCOCC4)cc3)C2)cc1 (stereo not drawn)
3. O=C(CCCCNCc1cccnc1)N1CCC(C(=O)NO)(S(=O)(=O)c2ccc(Oc3ccc(C(F)(F)F)cc3)cc2)CC1
4. O=C(NO)C1(S(=O)(=O)c2ccc(N3CCC(Sc4ccc(OC(F)(F)F)cc4)CC3)cc2)CCN(C2CC2)CC1
5. COC1CCCN(c2ccc(S(=O)(=O)C3(C(=O)NO)CCOCC3)cc2)C1 (stereo not drawn)
6. O=C(Nc1ccc(F)cc1F)N1CCC(C(=O)NO)(S(=O)(=O)c2ccc(Oc3ccc(OC(F)(F)F)cc3)cc2)CC1
7. CC1CN(c2ccc(S(=O)(=O)C3(C(=O)NO)CCOCC3)cc2)CCC1OCc1ccccc1 (stereo not drawn)
8. O=C(NO)C1(S(=O)(=O)c2ccc(N3CCN(C4CCCCC4)CC3)cc2)CCOCC1

[370, 110, 0.2, 246, 6400, 0.2, 480, 1900]
